# subject.of.test: T1, ZIKV (prM80E) with a C-terminal myc-myc-hexahistidine tag (Zika virus, UniProt A0A024B7W1 104-694)
# T1 construct: also called ZIKV (prM80E)-mmH; ZIKV-mmH
# assay.summary: SPR, mAb captured, 37C
Assignment: determine reported koff for the given binders.
Answers are plain numbers, in s⁻¹.

Use the examples below as a reference point.
[[record]]
binder = "H4H25619P (antibody, V domains shown) VH: QVQLVESGGGVVQPGRSLRLSCTASGFTFSTYGMHWVRHVPGKGLEWVAIVWYDGSDKSYAASVKGRFTISRDNSKNTLFLQMNSLRAEDTAVYYCARQGTYYYYGMDVWGQGTTVTVSS VL: DIQMTQSPSSLSASVGDRVTITCRSSQTITNYLNWYQQRPGKAPKLLIYAASSLQSGVPSRFSGSGSGTDFTLTISSLQPEDFATYYCQQSYSTPPITFGQGTKLEIKR"
assay_readout = "koff"
unit_string = "s⁻¹"
observed_measurement = 0.00108

[[record]]
binder = "H4H25633P (antibody, V domains shown) VH: EVQLVESGGGLVQPGRSLRLSCAASGFTFDDYAIHWVRQAPGKGLEWVSGISWNSGYLGYADSVKGRFTISRDNAKNSLYLQMNSLRAEDTAFYYCAKDVAWGSVRHVFEIWGQGTMVTVSS VL: EIVLTQSPGTLSLSPGERATLSCRASQTITGNQLAWYQQKPGQAPRLLIYFTSSRATGIPDRFSGSGSGTDFSLTISRLEPEDFAVYFCQQFGYSPWTFGQGTKVEIK"
assay_readout = "koff"
unit_string = "s⁻¹"
observed_measurement = 0.00501

[[record]]
binder = "H4H25598P (antibody, V domains shown) VH: EVQLVESGGGLVQPGGSLRLSCAASGFTVSSNYMSWVRQAPGSGLEWVSVIYSGGITHYIGSVKGRFTISRHNSKNTLYLQMNSLRAEDTAMYYCARERYSGITGNPYGFDFWGQGTMVTVSS VL: DIQLTQSPSFLSASVGDRVTITCWASQDISSYLAWYQQKPGIAPKLLIYSASTLQSGVPSSFSGSGSGTEFTLTISSLQPEDFATYYCQQLNIYPFTFGPGTKVDIK"
assay_readout = "koff"
unit_string = "s⁻¹"
observed_measurement = 0.000284

[[record]]
binder = "H4H25637P (antibody, V domains shown) VH: QLQLQESGPGLVKPSETLSLTCTVSGDSISSSNYFWGWIRQPPGKGLEWIGNIYYSGDTYYNPSLKSRVTMSVDTSKKQFSLKLRSVTAADTAVYYCARGRPYYDFWSGYFDYWGQGTLVTVSS VL: EIVLTQSPGTLSLSPGERATLPCRASQSVSSSYLAWYQQKPGQAPRLLIYGASSRATGIPDRFRGSGSGTDFTLTISRLEPEDFAVYYCQQYGTAPWTFGQGTKVEIK"
assay_readout = "koff"
unit_string = "s⁻¹"
observed_measurement = 0.00989


Record request: koff value, item H4H25630P (antibody, V domains shown) VH: QVQLVQSGAEVKRPGASVKVSCKASDYTFTDYGISWVRQAPGQGLEWMGWFNTYNGNTNYAQKFQGRITMTTDTSTSTAYMELRSLRSDDTAIYYCARDWGLHYFENWGQGTLVTVSS VL: EIVLTQSPGTLSLSPGERATLSCRASQSVRNSYLAWYQQKPGQAPRLLIYGASSRDTGIPDRFSGSGSGTDFTLTISRLEPEDFAVYYCQQYGRSPWTFGQGTKVEIK
0.00229
